Recorded values, source PubChem BioAssay AID624418.

Test: qHTS of GLP-1 Receptor Inverse Agonists: Cytotox Screen;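 further: loss of luciferase light is scored as toxicity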
Conditions: HEK293 cAMP-luciferase reporter cells, luminescence, 24 h; series mostly up to 38.3 µM
The campaign covered roughly 410,000 compounds. About 530 (0.13%) were called active. Inconclusive results (about 5%) are left out. The call rests on the fitted dose curve; in most records, active means well fitted inhibition curve with a large enough effect; inconclusive means small, poorly fitted or top-dose-only effect, or another doubt; inactive means no such curve, though single readings can be large or run the other way. Only a selection was taken, and actives are over-represented in it overall.
Labels: 1 = active, -1 = inactive

MOLECULE: Cc1ccc(-n2ncc(C(=O)N(C)Cc3ccccc3)c2-n2cccc2)cc1
LABEL_VALUE: -1

MOLECULE: Cc1ccc(NC(=O)C2CCN(S(=O)(=O)c3cc(-c4noc(C)n4)ccc3C)CC2)c(C)c1
LABEL_VALUE: -1

MOLECULE: O=C(c1ccc(Cl)cc1)n1nc(-c2cccnc2)nc1NCc1ccc(F)cc1
LABEL_VALUE: -1

MOLECULE: CC1=NN(C(=O)CCc2ccccc2O)C(O)(C(F)(F)F)C1 (stereo unspecified)
LABEL_VALUE: -1

MOLECULE: CC(C)(C)OC(=O)N1CCC(c2c(C(=O)N3CCN(c4cccc(Cl)c4)CC3)cnn2-c2cccc(Cl)c2)CC1
LABEL_VALUE: -1

MOLECULE: COc1ccc(CC(=O)N2N=C(C)CC2(O)C(F)(F)F)cc1 (stereo unspecified)
LABEL_VALUE: 1

MOLECULE: Fc1ccc(-c2ccc(NCCN3CCOCC3)nn2)cc1
LABEL_VALUE: 1

MOLECULE: CCOc1ccc(NC(=O)c2cc3c(=O)n(Cc4cccs4)ccc3nc2C)cc1
LABEL_VALUE: -1

MOLECULE: COc1ccccc1NC(=O)CN1C(=O)c2ccccc2Sc2ccc(C(=O)N3CCCC3)cc21
LABEL_VALUE: -1

MOLECULE: CCOC(=O)c1ccc(CN(Cc2ccccc2)S(=O)(=O)c2ccc(Cl)cc2)cc1
LABEL_VALUE: -1

MOLECULE: Cc1ccc(C(=O)Nc2ccccc2F)cc1S(=O)(=O)N1CCOCC1
LABEL_VALUE: -1

MOLECULE: CN(CC(=O)NCCN1CCOCC1)S(=O)(=O)c1ccc(F)cc1
LABEL_VALUE: -1

MOLECULE: CCc1ccc(NC(=O)CSc2nc3c([nH]c4ccccc43)c(=O)n2-c2cccc(OC)c2)cc1
LABEL_VALUE: -1

MOLECULE: COc1ccc(N(CC(=O)NCCc2ccc(Cl)cc2)S(=O)(=O)c2c(C)nn(C)c2C)cc1
LABEL_VALUE: -1

MOLECULE: O=S(=O)([N-]c1nc2ccccc2nc1-[n+]1ccc(Cc2ccccc2)cc1)c1ccc(Br)s1
LABEL_VALUE: 1

MOLECULE: Oc1ccc2ccccc2c1N=Nc1nccs1
LABEL_VALUE: 1

MOLECULE: CCCN(C(=O)Cn1cc(S(=O)(=O)N2CCN(c3ccccc3F)CC2)c2ccccc2c1=O)c1cccc(C)c1
LABEL_VALUE: -1

MOLECULE: Oc1ccc(N=Nc2nccs2)c(O)c1
LABEL_VALUE: 1

MOLECULE: CCOc1ccc(-c2nonc2NC(=O)c2oc3ccc(CC)cc3c2C)cc1
LABEL_VALUE: -1

MOLECULE: COc1cc(C(=O)N2CCN(C(=O)COc3cccc(C)c3)CC2)cc(OC)c1OC
LABEL_VALUE: -1

MOLECULE: Cc1ccc(CNC(=O)CCc2c(C)nc3c(c(C)nn3-c3ccccc3)c2C)cc1
LABEL_VALUE: -1

###

Assay: qHTS of GLP-1 Receptor Inverse Agonists: Cytotox Screen;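 further: loss of luciferase light is scored as toxicity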
Conditions: HEK293 cAMP-luciferase reporter cells, luminescence, 24 h; series mostly up to 38.3 µM
About 530 (0.13%) of roughly 410,000 compounds were called active. Roughly 5% stayed inconclusive and do not appear here. The call rests on the fitted dose curve; in most records, active means well fitted inhibition curve with a large enough effect; inconclusive means small, poorly fitted or top-dose-only effect, or another doubt; inactive means no such curve, though single readings can be large or run the other way. This is one part of a sample in which actives are shown more often than they occur.
Classes used: 1 (yes) = active, 0 (no) = inactive

COMPOUND: CCOc1ccc(N(Cc2ccccc2)C(=O)c2nc(S(C)(=O)=O)ncc2Cl)cc1
LABEL_VALUE: 1 (yes)

COMPOUND: CCOc1ccc(NC(=O)CN(Cc2ccccc2)S(=O)(=O)c2ccc(Cl)cc2)cc1
LABEL_VALUE: 0 (no)

COMPOUND: O=C(NCc1ccccc1Cl)c1cccn1-c1nnc(N2CCCCC2)s1
LABEL_VALUE: 0 (no)

COMPOUND: CCOc1ccc(C(NC(=O)c2cc(OC)c(OC)c(OC)c2)c2cc(Cl)c3cccnc3c2O)cc1 (stereo not given)
LABEL_VALUE: 0 (no)

COMPOUND: CCOc1ccc(N(Cc2ccccc2)C(=O)c2nc(SCC)ncc2Cl)cc1
LABEL_VALUE: 0 (no)

###

Test: qHTS of GLP-1 Receptor Inverse Agonists: Cytotox Screen;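 further: loss of luciferase light is scored as toxicity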
Details: HEK293 cAMP-luciferase reporter cells, luminescence, 24 h; series mostly up to 38.3 µM
The whole screen tested about 410,000 compounds, of which about 530 (0.13%) were called active. Inconclusive results (about 5%) are left out. Calls come from the whole dose curve; as a rule, active = well fitted inhibition curve with a large enough effect; inconclusive = small, poorly fitted or top-dose-only effect, or another doubt; inactive = no such curve, though single readings can be large or run the other way. For the sample, actives were picked, then their nearest neighbours and some compounds at random.
Outcomes: true = active, false = inactive

MOLECULE: CCN(CC(=O)NC(=O)NCc1ccccc1)Cc1nc2ccccc2c(=O)[nH]1
LABEL_VALUE: true
//
MOLECULE: Cc1ccc(NC(=O)Cn2c(=O)n(-c3ccccc3)c(=O)c3c4c(sc32)CCCC4)cc1
LABEL_VALUE: false
//
MOLECULE: O=C(Cn1cnc2c(oc3ccccc32)c1=O)Nc1ccc(OC(F)(F)F)cc1
LABEL_VALUE: false
//
MOLECULE: CC(=O)Nc1ccc(NC(=O)CSc2nnc3c4cc(Br)ccc4n(C)c3n2)cc1
LABEL_VALUE: false
//
MOLECULE: Cc1nc(SCCOc2ccc(Cl)cc2)[nH]c(=O)c1Cc1ccccc1
LABEL_VALUE: false
//
MOLECULE: O=S(=O)(c1ccc2nc(N3CCN(c4cccc(Cl)c4)CC3)ccc2c1)N1CCCCC1
LABEL_VALUE: false
//
MOLECULE: CCOC(=O)c1ccc(NC(=O)c2ncn(-c3ccccc3)n2)cc1
LABEL_VALUE: false
//
MOLECULE: CCCNC(=O)c1ccc(Cn2c(SCC(N)=O)nc3ccccc3c2=O)cc1
LABEL_VALUE: false
//
MOLECULE: O=c1c2ccccc2n(Cc2cccc(Cl)c2)c(=O)n1Cc1ccccc1
LABEL_VALUE: false
//
MOLECULE: CCc1nc2nc(C)cc(Nc3ccc(F)c(Cl)c3)n2n1
LABEL_VALUE: false

###

Assay: qHTS of GLP-1 Receptor Inverse Agonists: Cytotox Screen;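 further: loss of luciferase light is scored as toxicity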
Settings: HEK293 cAMP-luciferase reporter cells, luminescence, 24 h; series mostly up to 38.3 µM
About 530 (0.13%) of roughly 410,000 compounds were called active. Inconclusive results (about 5%) are left out. The call rests on the fitted dose curve; in most records, active means well fitted inhibition curve with a large enough effect; inconclusive means small, poorly fitted or top-dose-only effect, or another doubt; inactive means no such curve, though single readings can be large or run the other way. Shown is part of a subset that was picked to be rich in actives.
Classes used: label 1 (active), label 0 (inactive)

COMPOUND: Cc1ccc2nc(COc3ccccc3NC(=O)Nc3ccc(F)c(Cl)c3)cc(=O)n2c1
LABEL_VALUE: label 0

COMPOUND: Cc1cc(C)cc(NC(=O)CCS(=O)(=O)c2cc3c4c(c2)CCN4C(=O)CC3)c1
LABEL_VALUE: label 0

COMPOUND: CCCCCc1c(-c2ccc(OC)c(OC)c2)ncn1CCc1ccccc1OC
LABEL_VALUE: label 0

COMPOUND: CCOC(=O)N1CCc2c(sc3c2c(=O)n(-c2ccc(CC)cc2)c(=O)n3C)C1
LABEL_VALUE: label 0

COMPOUND: COCCNC(=O)CSc1c(C)cnc2c1c(=O)n(C)c(=O)n2C
LABEL_VALUE: label 0

COMPOUND: O=C(NCC12CC3CC(CC(C3)C1)C2)c1cc2nc(-c3ccccc3)cc(C(F)(F)F)n2n1
LABEL_VALUE: label 0

COMPOUND: CCCCNC(=S)N/N=C1\CCCCc2ccccc21
LABEL_VALUE: label 0

COMPOUND: CC(=O)OC1=C(C(C)=O)N(Cc2ccccc2)S(=O)(=O)c2ccccc21
LABEL_VALUE: label 0

COMPOUND: COC(=O)c1sccc1S(=O)(=O)N(CC(=O)Nc1ccc(C)c(F)c1)c1ccc(C)c(C)c1
LABEL_VALUE: label 0

COMPOUND: C/C(=N\NC(=O)c1ccc(C)cc1)C1C(=O)c2ccccc2C1=O
LABEL_VALUE: label 1

COMPOUND: COc1ccc(-c2cc(C(F)(F)F)n3nc(-c4ccccc4)cc3n2)cc1OC
LABEL_VALUE: label 0

COMPOUND: O=C1c2ccccc2C(=O)C1C(=O)C1CC1
LABEL_VALUE: label 0

COMPOUND: CC(CNC(=O)c1nnc(Cc2cccc(F)c2)o1)c1ccccc1 (stereo unspecified)
LABEL_VALUE: label 0

COMPOUND: C/C(=N\NC(=O)c1ccc(CSc2nc(C)cc(C)n2)cc1)C1CCCCC1
LABEL_VALUE: label 0

COMPOUND: Cc1cc(-c2ccc(C)c(S(=O)(=O)N3c4ccccc4CC3C)c2)on1 (stereo unspecified)
LABEL_VALUE: label 0

COMPOUND: CCc1ccc(NC(=O)Cn2c(=O)n(CCC(=O)NCc3ccc4c(c3)OCO4)c(=O)c3ccccc32)cc1
LABEL_VALUE: label 0

COMPOUND: CCc1ccc(NC(=O)c2cc(S(=O)(=O)N3CCCC(C)C3)cn2C)cc1 (stereo unspecified)
LABEL_VALUE: label 0

COMPOUND: Cc1cc(C)cc(NS(=O)(=O)c2ccc3[nH]cc(C(=O)N4CCCCC4)c(=O)c3c2)c1
LABEL_VALUE: label 0

COMPOUND: O=C(NCCc1ccc(Cl)cc1)c1ccc2c(c1)N(Cc1ccc(F)cc1)C(=O)CS2
LABEL_VALUE: label 0

COMPOUND: S=C(NCCc1ccccc1)NCc1ccccc1Cl
LABEL_VALUE: label 0

COMPOUND: O=C(CSc1cn(CC(=O)N2CCOCC2)c2ccccc12)Nc1ccccc1
LABEL_VALUE: label 0
